Tested on: Glutathione S-transferase A1 (GSTA1_HUMAN)
Test: LC–MS proteome analysis, GSTA1
Format: cell-based, Homo sapiens
Conditions: SW480, 24 h, IC50 concentration, % of control
# key: entry, value: Protein Intensity, % (GSTA1)
Field format: number, assumed %, no unit text.

- MOLECULE: "O=[N+]([O-])c1cc([N+]2=C(Nc3ccccc3F)[S][Cu-2]23[S]C(Nc2ccccc2F)=[N+]3c2ccc(Cl)c([N+](=O)[O-])c2)ccc1Cl [Compound 7]"
  TARGET_DESC: "Glutathione S-transferase A1 (GSTA1_HUMAN)"
  OBSERVED_VALUE: 75.6
- MOLECULE: "O=[N+]([O-])c1cc([N+]2=C(Nc3ccccc3Br)[S][Cu-2]23[S]C(Nc2ccccc2Br)=[N+]3c2ccc(Cl)c([N+](=O)[O-])c2)ccc1Cl [Compound 1]"
  TARGET_DESC: "Glutathione S-transferase A1 (GSTA1_HUMAN)"
  OBSERVED_VALUE: 78.3

Q. Lab note: need Protein Intensity, % (GSTA1) with Glutathione S-transferase A1 (GSTA1_HUMAN) for entry O=[N+]([O-])c1cc([N+]2=C(Nc3ccc(Br)cc3)[S][Cu-2]23[S]C(Nc2ccc(Br)cc2)=[N+]3c2ccc(Cl)c([N+](=O)[O-])c2)ccc1Cl [Compound 3] , please look it up.
A. 86.6

Q. Lab note: need Protein Intensity, % (GSTA1) with Glutathione S-transferase A1 (GSTA1_HUMAN) for entry O=[N+]([O-])c1cc([N+]2=C(Nc3ccc(I)cc3)[S][Cu-2]23[S]C(Nc2ccc(I)cc2)=[N+]3c2ccc(Cl)c([N+](=O)[O-])c2)ccc1Cl [Compound 8] , please look it up.
A. 91.6

====

# key: entry, value: Protein Intensity, % (GSTP1)
Test system: Glutathione S-transferase P (GSTP1_HUMAN)
Assay: LC–MS proteome analysis, GSTP1
Format: cell-based, Homo sapiens
Settings: PC3, 24 h, IC50 concentration, % of control
Field format: number, assumed %, no unit text.

Q. Reported Protein Intensity, % (GSTP1), molecule O=[N+]([O-])c1cc([N+]2=C(Nc3ccc(I)cc3)[S][Cu-2]23[S]C(Nc2ccc(I)cc2)=[N+]3c2ccc(Cl)c([N+](=O)[O-])c2)ccc1Cl [Compound 8] : ____
A. 64.1

====

# key: entry, value: MIC
Test system: S. epidermidis 423
Experiment: MIC, hospital MRSE strain
Assay type: cell-based, Staphylococcus epidermidis
Conditions: hospital MRSE S. epidermidis 423
Write the quantity with the unit trailing the number.

- COMPOUND: "O=[N+]([O-])c1cc([N+]2=C(Nc3ccccc3Br)[S][Cu-2]23[S]C(Nc2ccccc2Br)=[N+]3c2ccc(Cl)c([N+](=O)[O-])c2)ccc1Cl [Compound 1]"
  MIC: "8 µg/mL"
- COMPOUND: "O=[N+]([O-])c1cc([N+]2=C(Nc3ccc(I)cc3)[S][Cu-2]23[S]C(Nc2ccc(I)cc2)=[N+]3c2ccc(Cl)c([N+](=O)[O-])c2)ccc1Cl [Compound 8]"
  MIC: "8 µg/mL"

Note: attention shifts to another entry.
Q. Reported MIC, compound O=[N+]([O-])c1cc([N+]2=C(Nc3ccc(Cl)c(Cl)c3)[S][Cu-2]23[S]C(Nc2ccc(Cl)c(Cl)c2)=[N+]3c2ccc(Cl)c([N+](=O)[O-])c2)ccc1Cl [Compound 5] : ____
A. 32 µg/mL
